src = patent US11608320B2

Biological target: recombinant human 5-LO enzyme (Homo sapiens, UniProt P09917)
Sequence (P09917 whole entry): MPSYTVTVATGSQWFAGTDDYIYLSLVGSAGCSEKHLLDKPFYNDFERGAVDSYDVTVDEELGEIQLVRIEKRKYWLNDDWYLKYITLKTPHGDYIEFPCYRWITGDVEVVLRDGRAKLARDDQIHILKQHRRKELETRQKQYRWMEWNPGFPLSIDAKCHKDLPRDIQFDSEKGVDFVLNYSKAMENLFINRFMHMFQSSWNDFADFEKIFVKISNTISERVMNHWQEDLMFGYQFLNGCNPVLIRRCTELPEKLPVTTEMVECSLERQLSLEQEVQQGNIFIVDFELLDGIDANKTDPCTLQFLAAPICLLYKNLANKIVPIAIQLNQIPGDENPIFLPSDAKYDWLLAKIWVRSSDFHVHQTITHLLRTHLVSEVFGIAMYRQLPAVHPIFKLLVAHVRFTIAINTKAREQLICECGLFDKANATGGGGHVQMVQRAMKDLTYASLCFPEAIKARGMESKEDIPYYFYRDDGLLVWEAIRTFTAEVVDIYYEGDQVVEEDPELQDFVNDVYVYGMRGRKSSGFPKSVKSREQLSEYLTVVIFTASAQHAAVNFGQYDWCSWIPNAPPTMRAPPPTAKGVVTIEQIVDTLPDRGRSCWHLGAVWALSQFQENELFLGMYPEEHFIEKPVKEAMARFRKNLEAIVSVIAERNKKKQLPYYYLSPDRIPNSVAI
Assay: Direct 5-LO inhibitory activity in a cell-free assay (H2DCF-DA fluorescence)
Type: biochemical
Details: cell-free, recombinant human 5-LO; read-out: Inhibitory Activity IC50, Human recomb. 5-LO
parameter: IC50 (µM)
Give the number; µM is assumed, so skip it.

Could you please provide reported IC50 for `CCCCCCCC(=O)N(O)C[C@H]1CN(c2ccc(N3CCOCC3)c(F)c2)C(=O)O1` ? Thanks!
1.6

Could you please provide reported IC50 for `CCCCC(=O)N(O)C[C@H]1CN(c2ccc(N3CCOCC3)c(F)c2)C(=O)O1` ? Thanks!
3.3

Could you please provide reported IC50 for `CCCCCC(=O)N(O)C[C@H]1CN(c2ccc(N3CCOCC3)c(F)c2)C(=O)O1` ? Thanks!
3.4

Further cases:
Could you please provide reported IC50 for `CC(C)CC(=O)N(O)C[C@H]1CN(c2ccc(N3CCOCC3)c(F)c2)C(=O)O1` ? Thanks!
4.7

Could you please provide reported IC50 for `CCCCCCC(=O)N(O)C[C@H]1CN(c2ccc(N3CCOCC3)c(F)c2)C(=O)O1` ? Thanks!
1.9

Could you please provide reported IC50 for `NC(=O)N(O)C[C@H]1CN(c2ccc(N3CCOCC3)c(F)c2)C(=O)O1` ? Thanks!
14.7

Could you please provide reported IC50 for `CCCCCC(=O)ON(C[C@H]1CN(c2ccc(N3CCOCC3)c(F)c2)C(=O)O1)C(=O)CCCCC` ? Thanks!
21.6

---

System: LTC4 release from IgE/antigen-activated mouse mast cells (BMMC)
Experiment: Inhibition of LTC4 release in allergen/IgE-activated bone marrow-derived mouse mast cells
Format: cell-based
Settings: Mus musculus; IgE/antigen (DNP-BSA)-activated BMMC; read-out: Inhibitory Activity IC50, Mouse mast cell LTC4
parameter: IC50 (µM)
Give the number; µM is assumed, so skip it.

# annotated cases, reported IC50 shown
Could you please provide reported IC50 for CCC(=O)N(O)C[C@H]1CN(c2ccc(N3CCOCC3)c(F)c2)C(=O)O1 [PH-199] ? Thanks!
6.3

Could you please provide reported IC50 for CC(=O)N(O)C[C@H]1CN(c2ccc(N3CCOCC3)c(F)c2)C(=O)O1 [PH-23] ? Thanks!
20.7

Could you please provide reported IC50 for NC(=O)N(O)C[C@H]1CN(c2ccc(N3CCOCC3)c(F)c2)C(=O)O1 [PH-238] ? Thanks!
23.8

Could you please provide reported IC50 for O=C(ON(C[C@H]1CN(c2ccc(N3CCOCC3)c(F)c2)C(=O)O1)C(=O)C1CC1)C1CC1 [PH-206] ? Thanks!
37.3

Could you please provide reported IC50 for CC(C)C(=O)N(O)C[C@H]1CN(c2ccc(N3CCOCC3)c(F)c2)C(=O)O1 [PH-205] ? Thanks!
13.8

Further cases:
Could you please provide reported IC50 for O=C(C1CC1)N(O)C[C@H]1CN(c2ccc(N3CCOCC3)c(F)c2)C(=O)O1 [PH-211] ? Thanks!
8.7

Could you please provide reported IC50 for CC(C)C(=O)ON(C[C@H]1CN(c2ccc(N3CCOCC3)c(F)c2)C(=O)O1)C(=O)C(C)C [PH-204] ? Thanks!
21.8
